- assay.system: Serine/threonine-protein kinase ICK (Homo sapiens, UniProt Q9UPZ9); note: in the data inactive means no Kd found up to 30 µM
- Sequence (Q9UPZ9 whole entry): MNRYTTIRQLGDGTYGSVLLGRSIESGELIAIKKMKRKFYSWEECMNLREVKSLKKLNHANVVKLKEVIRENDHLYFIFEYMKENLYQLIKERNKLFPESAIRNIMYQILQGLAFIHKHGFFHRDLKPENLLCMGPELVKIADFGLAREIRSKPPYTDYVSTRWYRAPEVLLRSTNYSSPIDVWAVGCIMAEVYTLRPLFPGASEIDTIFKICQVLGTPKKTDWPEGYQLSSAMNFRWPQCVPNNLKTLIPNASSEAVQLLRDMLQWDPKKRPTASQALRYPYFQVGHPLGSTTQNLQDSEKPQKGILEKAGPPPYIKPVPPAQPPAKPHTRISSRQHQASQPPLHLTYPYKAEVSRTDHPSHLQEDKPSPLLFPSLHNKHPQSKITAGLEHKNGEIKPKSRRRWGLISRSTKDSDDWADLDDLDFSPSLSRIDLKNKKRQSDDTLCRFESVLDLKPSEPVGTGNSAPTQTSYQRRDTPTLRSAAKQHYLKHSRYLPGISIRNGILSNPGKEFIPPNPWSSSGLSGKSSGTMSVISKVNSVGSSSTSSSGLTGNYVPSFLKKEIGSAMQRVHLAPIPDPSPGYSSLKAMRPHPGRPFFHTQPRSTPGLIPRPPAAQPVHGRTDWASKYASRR
Active and inactive are the calls of the source.
Mark one answer only. Choices: active, inactive

Check out these entries, answers already filled in.
| compound | discrete.label |
| --- | --- |
| c1cc(OCCN2CCCCC2)cc(-c2n[nH]c3ccc(-c4nc[nH]n4)cc23)c1 [CC-401] | inactive |
| Cn1c(=O)n(-c2ccc(C(C)(C)C#N)cc2)c2c3cc(-c4cnc5ccccc5c4)ccc3ncc21 [DACTOLISIB] | inactive |
| Cn1c(=O)c(F)c(Nc2ccc(I)cc2F)c2c(=O)n(C[C@@H](O)CO)cnc21 [TAK-733] | inactive |
| C#Cc1cccc(Nc2ncnc3cc4c(cc23)OCCOCCOCCO4)c1 [ICOTINIB] | inactive |
| NC(=O)c1ccc(N(C(N)=O)c2c(F)cccc2F)nc1-c1ccc(F)cc1F [VX-702] | inactive |

# lookup: test call for CNC(=O)c1cc(COc2nnc(Nc3ccc(Cl)cc3)c3ccoc23)ccn1 [TELATINIB] inactive

# lookup: test call for COc1cccc2cc(-c3nc([C@H]4CC[C@H](C(=O)O)CC4)n4ncnc(N)c34)[nH]c12 [OSI-027] inactive

# lookup: test call for COc1cc(F)c(F)c(Nc2ccc(I)cc2F)c1NS(=O)(=O)C1(C[C@H](O)CO)CC1 [REFAMETINIB] inactive

# lookup: test call for CCN1CCN(Cc2ccc(Nc3ncc(F)c(-c4cc(F)c5nc(C)n(C(C)C)c5c4)n3)nc2)CC1 [ABEMACICLIB] active

---

- assay.system: MAP/microtubule affinity-regulating kinase 3 (Homo sapiens); note: in the data inactive means no Kd found up to 30 µM
- Sequence (P27448 whole entry): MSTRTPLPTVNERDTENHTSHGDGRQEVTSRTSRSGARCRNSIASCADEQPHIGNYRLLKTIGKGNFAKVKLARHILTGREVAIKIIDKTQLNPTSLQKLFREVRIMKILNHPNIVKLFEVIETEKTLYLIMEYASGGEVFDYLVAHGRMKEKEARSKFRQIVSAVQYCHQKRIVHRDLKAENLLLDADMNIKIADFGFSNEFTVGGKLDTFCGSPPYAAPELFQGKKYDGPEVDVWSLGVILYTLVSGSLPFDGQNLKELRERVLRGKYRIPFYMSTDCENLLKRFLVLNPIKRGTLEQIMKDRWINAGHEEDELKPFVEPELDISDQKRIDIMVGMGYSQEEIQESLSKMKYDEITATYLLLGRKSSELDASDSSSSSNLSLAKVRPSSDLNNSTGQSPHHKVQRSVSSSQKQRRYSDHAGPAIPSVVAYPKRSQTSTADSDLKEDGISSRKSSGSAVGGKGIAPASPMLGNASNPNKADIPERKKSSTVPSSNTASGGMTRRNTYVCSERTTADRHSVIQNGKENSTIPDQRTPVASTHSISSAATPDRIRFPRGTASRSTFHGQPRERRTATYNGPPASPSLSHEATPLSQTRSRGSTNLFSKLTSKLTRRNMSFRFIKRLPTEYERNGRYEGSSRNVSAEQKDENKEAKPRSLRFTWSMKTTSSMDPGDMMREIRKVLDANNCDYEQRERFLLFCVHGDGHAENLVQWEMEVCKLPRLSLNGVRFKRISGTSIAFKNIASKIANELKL
Calls of active or inactive are those of the source.
Mark one answer only. Choices: active, inactive

| compound | assay.system | discrete.label |
| --- | --- | --- |
| CNC(=O)c1cccc(-c2ccc3c(N4CCOC[C@@H]4C)nc(N4CCOC[C@@H]4C)nc3n2)c1 | MAP/microtubule affinity-regulating kinase 3 (Homo sapiens) | inactive |
| COc1cc(Nc2ncc(F)c(Nc3ccc4c(n3)N(COP(=O)(O)O)C(=O)C(C)(C)O4)n2)cc(OC)c1OC | MAP/microtubule affinity-regulating kinase 3 (Homo sapiens) | inactive |

# lookup: test call for CN1CCN(c2nc(C3=C(c4c[nH]c5ccccc45)C(=O)NC3=O)c3ccccc3n2)CC1 inactive

# lookup: test call for CC(C)CC(=O)Nc1[nH]nc2c1CN(C(=O)C1CCN(C)CC1)C2(C)C inactive

# lookup: test call for COc1cc2ncnc3c2cc1OCCCCCN(C)Cc1ccc(Br)cc1N3 inactive

# lookup: test call for O=c1[nH]c([C@@H]2CCCN2)nc2c1oc1ccc(Cl)cc12 inactive

# lookup: test call for COc1cc2ncnc(Nc3ccc(F)c(Cl)c3)c2cc1NC(=O)/C=C/CN1CCCCC1 [DACOMITINIB ANHYDROUS] inactive

# lookup: test call for C[C@@H]1COC(Nc2ccc3ncnc(Nc4ccc(OCc5nccs5)c(Cl)c4)c3c2)=N1 inactive

---

- assay.system: Serine/threonine-protein kinase D3 (Homo sapiens); note: in the data inactive means no Kd found up to 30 µM
- Sequence (O94806 whole entry): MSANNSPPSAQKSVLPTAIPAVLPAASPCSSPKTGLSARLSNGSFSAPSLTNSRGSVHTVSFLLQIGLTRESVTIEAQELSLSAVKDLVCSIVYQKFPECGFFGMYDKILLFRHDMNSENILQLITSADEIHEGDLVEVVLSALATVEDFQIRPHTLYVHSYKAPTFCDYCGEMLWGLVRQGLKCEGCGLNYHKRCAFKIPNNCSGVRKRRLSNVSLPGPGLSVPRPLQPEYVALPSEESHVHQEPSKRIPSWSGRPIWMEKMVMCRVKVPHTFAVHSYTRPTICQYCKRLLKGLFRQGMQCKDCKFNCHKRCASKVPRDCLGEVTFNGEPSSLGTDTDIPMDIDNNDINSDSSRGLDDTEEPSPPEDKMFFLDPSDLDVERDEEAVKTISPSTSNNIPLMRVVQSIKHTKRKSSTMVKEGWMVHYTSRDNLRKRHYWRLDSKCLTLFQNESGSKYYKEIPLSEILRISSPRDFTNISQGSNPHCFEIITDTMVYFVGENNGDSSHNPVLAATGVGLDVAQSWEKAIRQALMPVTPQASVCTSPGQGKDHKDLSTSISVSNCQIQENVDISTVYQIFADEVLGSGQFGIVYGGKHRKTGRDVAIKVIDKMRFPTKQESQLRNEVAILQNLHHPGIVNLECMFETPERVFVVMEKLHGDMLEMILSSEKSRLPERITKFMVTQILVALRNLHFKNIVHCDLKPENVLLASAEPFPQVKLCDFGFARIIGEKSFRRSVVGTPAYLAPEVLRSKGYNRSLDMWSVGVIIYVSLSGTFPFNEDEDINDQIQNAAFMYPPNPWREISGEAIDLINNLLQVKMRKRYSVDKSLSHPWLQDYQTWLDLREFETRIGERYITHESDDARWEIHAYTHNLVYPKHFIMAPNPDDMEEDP
Active and inactive are the calls of the source.
Mark one answer only. Choices: Y for active, N for inactive

Check out these entries, answers already filled in.
| molecule | discrete.label |
| --- | --- |
| COc1ccc(-c2ccc3ncc4c(c3c2)n(-c2ccc(N3CCNCC3)c(C(F)(F)F)c2)c(=O)n4C)cn1 [BGT-226 FREE BASE] | N |
| CN1CCN(c2nc(C3=C(c4c[nH]c5ccccc45)C(=O)NC3=O)c3ccccc3n2)CC1 | N |
| COc1cc2ncnc(Nc3ccc(O)cc3)c2cc1OC | N |
| Cc1c(Cn2c(C)nc3c(C(=O)O)cc(N4CCOCC4)cc32)cccc1C(F)(F)F | N |
| COc1cc(Nc2ncc(F)c(Nc3ccc4c(n3)N(COP(=O)(O)O)C(=O)C(C)(C)O4)n2)cc(OC)c1OC | N |

# lookup: test call for Cc1c(NC(=O)OC[C@@H]2COCCN2)cn2ncnc(Nc3ccc4c(cnn4Cc4cccc(F)c4)c3)c12 N

# lookup: test call for CC[C@@](C)(Nc1ccnc(-c2c[nH]c3ncccc23)n1)C(=O)NCC(F)(F)F N

# lookup: test call for COc1ccc2c(OCc3nnc4ccc(-c5ccccc5)nn34)ccnc2c1 N

# lookup: test call for Cc1cc(C(=O)Nc2cc(Oc3ccc4nc(NC(=O)C5CC5)cn4n3)ccc2C)n(C)n1 N

# lookup: test call for COc1cc2ncnc3c2cc1OCCCCCN(C)Cc1ccc(Br)cc1N3 N
